Catalogue of molecules with associated pKi
# System under test: recombinant human NK1 receptors (Homo sapiens)
# Sequence (P25103 whole entry): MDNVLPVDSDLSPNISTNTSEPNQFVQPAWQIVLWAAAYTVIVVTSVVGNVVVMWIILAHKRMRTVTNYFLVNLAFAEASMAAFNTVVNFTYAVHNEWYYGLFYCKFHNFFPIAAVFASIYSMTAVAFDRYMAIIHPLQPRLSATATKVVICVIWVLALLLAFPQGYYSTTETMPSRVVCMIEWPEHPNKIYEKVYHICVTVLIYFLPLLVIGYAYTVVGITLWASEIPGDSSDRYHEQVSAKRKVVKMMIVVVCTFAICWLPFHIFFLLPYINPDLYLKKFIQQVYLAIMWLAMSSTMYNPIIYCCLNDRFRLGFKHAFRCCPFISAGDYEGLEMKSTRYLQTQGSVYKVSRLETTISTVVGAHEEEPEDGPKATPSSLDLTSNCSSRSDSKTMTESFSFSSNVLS
# Procedure summary: NK1-receptor binding affinity, displacement of [3H]-substance P
# Measurement conditions: displacement of [3H]-substance P from recombinant human NK1 receptors expressed in CHO cell membranes; average of at least two determinations
# Procedure: NK1-receptor binding affinity has been determined in vitro by the compounds' ability to displace [3H]-substance P (SP) from recombinant human NK1 receptors expressed in Chinese Hamster Ovary (CHO) cell membranes. CHO cell membranes were prepared by using a modification of the method described by Dam T and Quirion R (Peptides, 7:855-864, 1986). […] Non-specific binding was determined using excess of Substance P (1 μM) and represents about 6% of the total binding. […]
pKi: −log10 of the molar value. Where a name gives a salt, the structure may show the parent alone.

{"Molecule": "Cc1cc(F)ccc1[C@H]1CNCCN1C(=O)N(C)Cc1cc(Cl)cc(Cl)c1.Cl [Example 3, Hydrochloride]", "pKi": 9.43}
{"Molecule": "Cc1cc(F)ccc1[C@H]1CNCCN1C(=O)N(C)Cc1ccc(Cl)c(Cl)c1 [Example 8, Trifluoroacetate]", "pKi": 9.19}
{"Molecule": "Cc1cc(C)cc(CN(C)C(=O)N2CCNC[C@@H]2c2ccc(F)cc2C)c1 [Example 2, Hydrochloride]", "pKi": 9.14}
{"Molecule": "Cc1cc(F)ccc1[C@H]1CNCCN1C(=O)N(C)Cc1cc(F)cc(F)c1 [Example 6, Hydrochloride]", "pKi": 8.78}
{"Molecule": "Cc1cc(F)ccc1[C@H]1CNCCN1C(=O)N(C)Cc1cc(Cl)ccc1Cl [Example 7, Hydrochloride]", "pKi": 9.07}

Just for reference, patent US20040157858A1 is where these values come from.
